METHOD_DESCRIPTION: Inhibitory activity against Vascular endothelial growth factor receptor
MEASURED_ENDPOINT: IC50 (nM)

Cc1cc2cc(Nc3ccnc4cc(-c5ccc(CNCCCO)cc5)sc34)ccc2[nH]1; 5
Cc1cc2cc(Nc3ccnc4cc(-c5ccc(CNCCOCCO)cc5)sc34)ccc2[nH]1; 5
Cc1cc2cc(Nc3ccnc4cc(-c5ccc(CN6CCOCC6)cc5)sc34)ccc2[nH]1; 5

Value source: BindingDB's records for doi:10.1016/j.bmcl.2003.10.030
